Tested on: NCI-H23
run-description: NCI tumour cell line growth inhibition, 48 h
Active and inactive are the calls of the source. No stated cut-off is given here; in the data, active = GI50 up to about 1.1 µM and inactive = higher.
Please go through the items and note down their GI50.

Recorded results for 8 molecules are shown here.
N#Cc1ccc(/N=N/N2CCCC2)cc1 : 95.1 µM (inactive)
CC(=O)O[C@H]1CC[C@@]2(C)C(=CC[C@H]3[C@@H]4CC[C@H](c5cc(C(F)(F)F)n(C(C)=O)n5)[C@@]4(C)CC[C@@H]32)C1 : 6.05 µM (inactive)
CC(C)(C)C1(O)C=C(O)C(=O)N1NC(=O)c1ccccc1Nc1ccccc1 (centres undefined) : 41 µM (inactive)
O=C(/C=C/c1ccsc1)c1ccco1 : 14.2 µM (inactive)
O=C(/C=C/c1cc(O)c(O)cc1O)OCCc1ccccc1 : 24.2 µM (inactive)
O=C1Nc2ccccc2/C1=C1\C(=O)Nc2ccccc21 : 20.9 µM (inactive)
CCOC(=O)c1cn2c(n1)sc1c(Cl)c(Cl)ccc12 : 29.4 µM (inactive)
CC1OC(O[C@H]2CC[C@]3(C)[C@H]4CC=C5[C@@H]6[C@@H](C)[C@H](C)CC[C@]6(C(=O)O)CC[C@@]5(C(=O)O)[C@]4(C)CC[C@H]3C2(C)C)C(O)C(O)C1O (some centres undefined) : > 75 µM (inactive)

Let's switch to this molecule now.
Per the reported NCI-H23 data, COc1ccc(CCN2CCOCC2)cc1 has GI50 of > 100 µM (inactive)
